Origin of the recorded values: PubChem BioAssay AID651706

assay_comment: differentiation of ER-HoxA9 arrested myeloid cells – cell-based, GFP/Mac1 flow cytometry, cherry pick 01, confirmation (AID 651706);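 also: plate controls were double positive share in DMSO wells for no effect and share in positive control wells for full effect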
condition_set: ER-HoxA9 myeloid progenitors, stronger effect = higher value; GFP/Mac1 double-positive flow
Out of some 2,300 compounds screened, about 55 (2%) were called active. The list is a sample of the results.
Exercise: state measured differentiation response for each of the compounds provided.
One number for each entry, in %.

{"compound": "Cc1ccc(-n2nc3cc(C)c(NC(=O)c4cccnc4)cc3n2)cc1", "measured_property": "differentiation response", "value_measured": 5.4}

List reported differentiation response for each of these compounds:
1. COc1ccc(N(CC(=O)NC2CCCCCCC2)S(=O)(=O)c2c(C)nn(C)c2C)cc1
2. Cc1cccc(C)c1NC(=O)CCS(=O)(=O)c1cccc2nsnc12
3. CC1CCCC(NC(=O)CN2CCN(Cc3ccc(Cl)cc3)C2=O)C1C (stereo not given)
4. O=C(Cn1cc(-c2nnnn2-c2ccc(Cl)cc2)c(=O)c2ccccc21)c1ccccc1
5. Fc1cccc(Cl)c1CSc1ccc(-c2ccco2)nn1

Solution:
1: 1.75; 2: 2; 3: 4.75; 4: 3.55; 5: 1.2
